Source of measurements: patent US6500842B1

Target: CMV polymerase (Human cytomegalovirus)
Construct: made in house; host or cells: recombinant baculovirus-infected SF-9 cells
Test: modified version of the HCMV polymerase assay (100% DMSO dilution, DTT, different enzyme lot)
Format: biochemical
Conditions: Concentration 50 μM; Table 6
We use 30% as the dividing line for inhibition at 50 µM: on or above the line is True, below is False.

Cc1ccc2c(Cl)cc(S(=O)(=O)NCCc3ccc(NS(=O)(=O)c4c(C)noc4C)cc3)c(O)c2n1 = False
O=S(=O)(NCCSc1ccccc1)c1cc(Cl)c2ccc(/C=C/c3ccccc3)nc2c1O = True
Cc1ccc2c(Cl)cc(S(=O)(=O)NCc3ccccn3)c(O)c2n1 = False

Does inhibition at 50 µM meet or surpass 30% for Cc1ccc2c(Cl)cc(S(=O)(=O)NCCc3ccccn3)c(O)c2n1 ?
False

Does inhibition at 50 µM meet or surpass 30% for Cc1ccc2c(Cl)cc(S(=O)(=O)NCCc3ccc(NS(=O)(=O)c4ccccc4)cc3)c(O)c2n1 ?
True

Does inhibition at 50 µM meet or surpass 30% for Cc1ccc2c(Cl)cc(S(=O)(=O)NCCc3ccc(Cl)cc3)c(O)c2n1 ?
True

###

Target: HCMV polymerase (Human cytomegalovirus)
Construct: made in house; host or cells: recombinant baculovirus-infected SF-9 cells
Test: HCMV polymerase assay (scintillation proximity assay)
Assay type: biochemical
Conditions: Table 11; read-out: CMV pol Assay IC50
Rule: IC50 below 10 µM gives T. Equal to or above 10 µM gives F.

Example entries begin here.
COC(=O)[C@H](Cc1ccccc1)Nc1nnc(NC(=O)c2ccc3cccnc3c2O)s1 = F
N#CC(Nc1nnc(NC(=O)c2ccc3cccnc3c2O)s1)c1ccc2c(c1)OCO2 (stereo not shown) = T

Given O=C(Nc1nnc(NC(C(=O)O)c2ccc3c(c2)OCO3)s1)c1ccc2cccnc2c1O (stereo not shown) , is recorded IC50 strictly lower than 10 µM?
F

Given COC(=O)[C@@H](Cc1ccccc1)Nc1nnc(NC(=O)c2ccc3cccnc3c2O)s1 , is recorded IC50 strictly lower than 10 µM?
T

Given O=C(Nc1nnc(NCc2ccc3c(c2)OCO3)s1)c1ccc2cccnc2c1O , is recorded IC50 strictly lower than 10 µM?
T

Given CC(C)(C)OC(=O)[C@H](Cc1c[nH]c2ccccc12)Nc1nnc(NC(=O)c2ccc3cccnc3c2O)s1 , is recorded IC50 strictly lower than 10 µM?
T

###

System: HCMV
Assay: CMV antiviral assay, cell culture based ELISA in human foreskin fibroblast cells
Set-up: species or system human cytomegalovirus (HCMV)
Settings: read-out: CMV Antiviral Assay IC50 (AV); Table 12
MEASUREMENT_LABEL: pIC50
One number for each entry, as −log10 of the molar value.

Provide pIC50, tested on HCMV, for Cc1ccc2c(Cl)cc(S(=O)(=O)NCCCN3CCOCC3)c(O)c2n1 [drawing 326] .
5.44

###

Would you mind telling me the reported IC50 of each entry?
Molecular target: HCMV polymerase (Human cytomegalovirus)
Construct: made in house; host or cells: recombinant baculovirus-infected SF-9 cells
Test: HCMV polymerase assay (scintillation proximity assay)
Type: biochemical
Conditions: pol type CMV; Table 2; read-out: IC50
One number for each entry, in µM.

Cc1ccc2c(Cl)cc(S(=O)(=O)NCCSc3ccccc3)c(O)c2n1 = 4.6
Cc1ccc2c(Cl)cc(S(=O)(=O)NCc3ccc(F)cc3)c(O)c2n1 = 4.3
Cc1ccc2c(Cl)cc(S(=O)(=O)NCc3cccc(Cl)c3)c(O)c2n1 = 12.8
Cc1ccc2c(Cl)cc(S(=O)(=O)Nc3ccc(Cl)cc3)c(O)c2n1 = 5.5

Consider the additional compound presented here.
Give the reported value of IC50 for this record: Cc1ccc2c(Cl)cc(S(=O)(=O)NCc3ccc(Cl)cc3)c(O)c2n1
11.3

###

Biological target: HCMV polymerase (Human cytomegalovirus, UniProt P08546)
Construct: made in house; host or cells: recombinant baculovirus-infected SF-9 cells
Sequence (P08546 whole entry): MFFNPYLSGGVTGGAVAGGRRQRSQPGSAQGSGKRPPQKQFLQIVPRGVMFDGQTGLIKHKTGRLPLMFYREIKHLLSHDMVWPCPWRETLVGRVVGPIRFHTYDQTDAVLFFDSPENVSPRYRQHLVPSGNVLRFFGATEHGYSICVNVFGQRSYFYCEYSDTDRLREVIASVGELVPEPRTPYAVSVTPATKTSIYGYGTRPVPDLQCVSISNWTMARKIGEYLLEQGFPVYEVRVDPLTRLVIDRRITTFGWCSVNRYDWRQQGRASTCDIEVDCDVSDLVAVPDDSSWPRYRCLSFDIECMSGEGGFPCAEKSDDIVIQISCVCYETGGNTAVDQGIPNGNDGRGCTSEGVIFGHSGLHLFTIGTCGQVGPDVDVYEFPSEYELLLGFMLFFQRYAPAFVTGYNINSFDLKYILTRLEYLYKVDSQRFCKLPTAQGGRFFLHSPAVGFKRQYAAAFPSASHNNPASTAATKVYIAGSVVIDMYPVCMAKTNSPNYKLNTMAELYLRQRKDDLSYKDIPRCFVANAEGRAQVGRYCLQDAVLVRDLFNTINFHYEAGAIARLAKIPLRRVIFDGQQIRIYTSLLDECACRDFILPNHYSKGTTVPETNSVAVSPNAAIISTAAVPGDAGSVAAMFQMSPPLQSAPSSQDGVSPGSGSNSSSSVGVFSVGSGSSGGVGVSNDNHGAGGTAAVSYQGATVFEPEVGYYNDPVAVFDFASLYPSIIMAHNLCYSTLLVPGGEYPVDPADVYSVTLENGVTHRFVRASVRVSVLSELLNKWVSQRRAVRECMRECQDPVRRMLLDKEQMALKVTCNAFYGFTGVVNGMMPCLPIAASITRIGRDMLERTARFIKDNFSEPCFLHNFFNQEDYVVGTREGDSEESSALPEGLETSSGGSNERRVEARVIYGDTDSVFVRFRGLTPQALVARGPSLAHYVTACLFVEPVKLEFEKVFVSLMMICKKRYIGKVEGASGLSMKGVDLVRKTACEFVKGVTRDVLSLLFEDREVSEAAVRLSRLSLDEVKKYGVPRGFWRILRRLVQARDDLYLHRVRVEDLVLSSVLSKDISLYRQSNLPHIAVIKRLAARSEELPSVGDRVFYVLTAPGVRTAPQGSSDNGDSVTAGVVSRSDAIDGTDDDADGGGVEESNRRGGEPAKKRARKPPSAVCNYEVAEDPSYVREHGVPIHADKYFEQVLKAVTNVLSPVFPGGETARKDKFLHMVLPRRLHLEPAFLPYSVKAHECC
Assay: HCMV polymerase assay (scintillation proximity assay)
Type: biochemical
Conditions: IC50 uM, Table 10; CMV pol Assay
MEASUREMENT_LABEL: IC50 (µM)
Answers are plain numbers, in µM.

Give the reported value of IC50 for this record: O=C(Nc1ccc2c(C(F)(F)F)cc(=O)oc2c1)c1ccc2cccnc2c1O
9.5

###

Target: CMV polymerase (Human cytomegalovirus, UniProt P08546)
Construct: made in house; host or cells: recombinant baculovirus-infected SF-9 cells
Sequence (P08546 whole entry): as above
Experiment: modified version of the HCMV polymerase assay (100% DMSO dilution, DTT, different enzyme lot)
Assay type: biochemical
Details: Concentration 25 uM; Table 3
MEASUREMENT_LABEL: inhibition at 25 µM (%)
Numbers only, in %.

Cc1ccc2c(Cl)cc(S(=O)(=O)NCCCc3ccccc3)c(O)c2n1 = 63

Required: inhibition at 25 µM, one value per molecule below.
1. Cc1ccc2c(Cl)cc(S(=O)(=O)NCCCn3ccnc3)c(O)c2n1
2. Cc1ccc2c(Cl)cc(S(=O)(=O)NC(c3ccccc3)c3ccccc3)c(O)c2n1
3. Cc1ccc2c(Cl)cc(S(=O)(=O)N[C@@H](C)c3ccccc3)c(O)c2n1

1. 21
2. 62
3. 53

Required: inhibition at 25 µM, one value per molecule below.
1. Cc1ccc2c(Cl)cc(S(=O)(=O)N[C@H](C)c3ccccc3)c(O)c2n1
2. Cc1ccc2c(Cl)cc(S(=O)(=O)NCCCN3CCOCC3)c(O)c2n1

41
0

###

Would you mind telling me the reported melting point of each entry?

# example entries with known answers
Cc1ccc2c(Cl)cc(S(=O)(=O)N[C@H](C)c3ccccc3)c(O)c2n1 = 84 to 88 °C
Cc1ccc2c(Cl)cc(S(=O)(=O)NCCc3ccc(Cl)cc3Cl)c(O)c2n1 = 132 to 135 °C
O=S(=O)(NCCSc1ccccc1)c1cc(Cl)c2ccc(/C=C/c3ccccc3)nc2c1O = 187 to 193 °C
O=C(Nc1nnc(Cc2ccc(Cl)cc2)s1)c1ccc2cccnc2c1O = 276 to 278 °C

Required: melting point, one value per compound below.
1. O=S(=O)(NCc1ccccc1)c1cc(Br)c2cccnc2c1O
2. Cc1ccc2c(Cl)cc(S(=O)(=O)NCCc3ccc(Cl)cc3)c(O)c2n1
3. Cc1ccc2c(Cl)cc(S(=O)(=O)NCCCN3CCOCC3)c(O)c2n1
4. O=C(NCCSc1ccccc1)c1ccc2ccc(/C=C/c3ccccc3)nc2c1O
5. O=S(=O)(NCc1ccc(Cl)cc1)c1cc(Cl)c2cccnc2c1O

191 to 192 °C
131 to 133 °C
245 to 257 °C
131 to 132 °C
189 to 190 °C (dec.)

###

MEASUREMENT_LABEL: melting point

Cc1ccc2c(Cl)cc(C(=O)NCCSc3ccccc3)c(O)c2n1 = 131 to 134 °C
Cc1ccc2c(Cl)cc(S(=O)(=O)N[C@@H](C)c3ccccc3)c(O)c2n1 = 83 to 87 °C
Cc1ccc2c(Cl)cc(S(=O)(=O)NCc3ccccc3)c(O)c2n1 = 113 to 114 °C
O=C(NC1=NC(=O)C(c2ccc(Cl)cc2)S1)c1ccc2cccnc2c1O (stereo not drawn) = 272 to 276 °C (dec.)
COc1ccc(/C=C/c2ccc3ccc(C(=O)NCC(O)c4ccccc4)c(O)c3n2)cc1 (stereo not drawn) = 203 to 205 °C
O=S(=O)(Nc1ccc(Cl)cc1)c1cc(Cl)c2cccnc2c1O = 97 °C (dec.)
CC(C)(C)[Si](C)(C)c1cc(Cl)c2cccnc2c1O = 107 to 108 °C
CSCC[C@H](Nc1nnc(NC(=O)c2ccc3cccnc3c2O)s1)C(=O)OC(C)(C)C.O (hydrate or solvate) = 204 to 205 °C

Consider the additional molecule presented here.
Give the reported value of melting point for this record: O=C(Nc1nc2ccc(Cl)cc2s1)c1ccc2cccnc2c1O
> 320 °C

###

Target: HCMV polymerase (Human cytomegalovirus, UniProt P08546)
Construct: made in house; host or cells: recombinant baculovirus-infected SF-9 cells
Experiment: HCMV polymerase assay (scintillation proximity assay)
Format: biochemical
Conditions: Table 14; read-out: IC50
Method: The HCMV polymerase assay is performed using a scintillation proximity assay (SPA) as described in several references, such as N. D. Cook, et al., Pharmaceutical Manufacturing International, pages 49-53 (1992); K. Takeuchi, Laboratory Practice, September issue (1992); U.S. Pat. No. 4,568,649 (1986); which are incorporated by reference herein. Reactions are performed in 96-well plates. […] Plates are incubated 10 min. at 37° C., then equilibrated to room temperature, and counted on a Packard Topcount. […]
Would you mind telling me the reported pIC50 of each entry?
Numbers only, as −log10 of the molar value.

O=C(NCc1ccc(F)cc1Cl)c1ccc2cccnc2c1O = 4.55
CC[C@H](C)C(CO)NC(=O)c1ccc2cccnc2c1O (stereo partly shown) = 4.59
O=C(NCCNc1ccc([N+](=O)[O-])cn1)c1ccc2cccnc2c1O = 4.38

Required: pIC50, one value per compound below.
1. CCCCCCNC(=O)c1ccc2cccnc2c1O
2. O=C(NCc1cc(Cl)cc(Cl)c1)c1ccc2cccnc2c1O
3. CC(C)C[C@H](NC(=O)c1ccc2cccnc2c1O)C(=O)OC(C)(C)C
4. O=C(NCc1c(F)cccc1Cl)c1ccc2cccnc2c1O
5. O=C(N[C@@H](CO)c1ccccc1)c1ccc2cccnc2c1O

1. 4.57
2. 4.57
3. 4.29
4. 4.52
5. 4.72
